Each entry below carries its recorded residual activity.
- TARGET_ENTITY: STK17A (human)
- ASSAY_NOTES: radiometric filter-binding kinase assay, Kinase HotSpot
- TEST_CONDITIONS: compound 0.5 µM; ATP 10 µM
Returns: string containing the number followed by the unit.

A selection of reference data follows.
# CPD_SMILES, residual activity
rows = [
    ("CCN(CC)CCCCN1c2ccccc2Oc2ccc(Cl)cc21", "96.1%"),
    ("COc1ccc(OC)c2c(=S)c3ccccc3[nH]c12", "90.3%"),
    ("COc1cc2ncc(-c3ccccc3)nc2cc1OC", "95.5%"),
    ("COc1ccc(CNC(=O)Nc2ncc([N+](=O)[O-])s2)cc1", "91.6%"),
    ("Cc1nc2cc3nc(-c4cccs4)cnc3cc2n1C", "80.5%"),
]

Okay, now this compound:
Ask: Find the recorded residual activity belonging to Cn1sc(=O)n(Cc2ccccc2)c1=O and report it.
Reply: 101%
